FYI, the data here is from the DeepSol protein solubility set.

- test.details: soluble on expression in E. coli; label from the status in PepcDB or PDB records
measured.metric: soluble on expression in E. coli

1) SHLHPLHKNTTGYDLRHLFIGSEGTLGIITAATLKLFANPLDKATAWVGIPDIESAVRLLTETQAHFAERLCSFELIGRFAAELSSEFSKLPLPTHSEWHILLELTDSLPDSNLDDRLVEFLYKKGFTDSVLAQSEQERIHMWALRENISASQRKLGTSIKHDIAVPIGRVADFVRRCAKDLEQNFKGIQIVCFGHLGDGSLHYNTFLPEILSNEVYRYENDINSTVYRNVLACNGTIAAEHGIGIIKKQWLDKVRTPAEIALMKSIKQHLDPYNIMNPGKLLP not soluble
2) MGSDKIHHHHHHMIRLSNENTIFFMDKENVPIASCQSGDTVIFETKDCFSDQITNEEQALTSIDFNRVNPATGPLYVEGARRGDMLEIEILDIKVGKQGVMTAAPGLGALGESLNSPTTKLFPIEGDDVVYSTGLRLPLQPMIGVIGTAPPGEPINNGTPGPHGGNLDTKDIKPGTTVYLPVEVDGALLALGDLHAAMGDGEILICGVEIAGTVTLKVNVKKERMFPLPALKTDTHFMTIASAETLDAAAVQATKNMATFLANRTALSIEEAGMLLSGAGDLYVSQIVNPLKTARFSLALHYFEKLGVDLCN not soluble
3) MSLSNKIVLTSPDRKTTRLLEKVRKEYDFKIDAYEATFDDAVELIRGKVAHREHWDPIIATGGATLGLLRDNLGRMPWVNIFPTEYDLVIALEQAKKTKKTIGLFNPGQIDTEAIKAVCSAIQIDAHIYRYNSWKEVLVQVEKAYQDGVEVAIGAGEKISSAVERKNIQYVSVTSGEYTIRRAFKYAQLLVDLKRNEKVSHEEGHHHHHH not soluble
4) MSLEDCRISRVELYALADENAPPIPWADNQEPLLYTNNIVRLFTEDGTEGLGATMSYTENFFDRCIIESLRTIVPGLIGKNPLMTQELNNWLGARCTWGGLPAKSPIDIAAWDIKGKKAGMPLYMLLGGARTKIKSYASTPMFDTVEEYFPYIDDCIEHGFTAIKLHCYCVYDKDVALVEAVEAKYGTSGIRFMLDTAGFYTPEQAMKMAKWMERHNWEWLEAPVSDYDFKTYQRLVANTDLEISSHGNCLLTLQEVTHALSTGMWSDVRQDATVCGGITQLNKCFAIAAGHSKNLEIQSMGYTLTQAANLHVALAHDNCNFFEQFYPYEAFELASKTQIRTDKEGYVHAPAGNGLGVEMDWDAVKEASFASYVFEEGHHHHHH soluble
5) MAHHHHHHMAKERNLDLKALQRSKRTVAHAYDAGVRSVPPALPLDIGGALAQVLTTRVTTCFGLHLIVTAQNEDAEQQSAPSLLMDVAVRAHLERLPLPVLHRLISDLCEVRAAWKRDLLAPSAAAAVQEQALLGRESINALLYHVCLWQRRYPLELLSAVLSFYDEHKHLFSPATSERCSASVQLESLLEEVQCLQYPDLSDVPGLIRCDVFMTYPHMPLGEQRQLMHTIAAAVVHRKAAGGLQRQSSCMGTEEKYVTDNLLRHSRTPPDPRLLLRSFVVDGAAAIPERFCTDMPTQTYHEMRAAFERHKHDGVRRLAAQDYGQAVTELTPPPPPPPPQPAASSVPSS not soluble
6) MGSDKIHHHHHHMTLLRGDDFFTSRAVTVAVEPRTPQTAFPEHYHDFWEIVLVEQGAGVHVFNDQPYALCSGSVFFVRDNDRHLFEDVEGLCLTNMLYRSPRGFRFLSDIAAFLPYGPNGEWQGQWQVNAAGMQQLKQSLNSLAGLAQSDAPEAIAASESLFLQILVQLRQHCFQTEGNGSERQGVQALLGWLQNNYSEEVNWGGLADQFSLPLRTLHRQLKQHTGMTPQRYLNRLRLLEARRRLQQSDDSITTIAHACGFSDSNHFSTQFRKAFSQAPKSLRHQAFSREE not soluble
7) MSLGNNLKKKNGADSLYYTTRTFATTKEVIQANKFVNSEKLNEIAKKTDCTYLKSPAGIFTQATLPINKIYEELSHDTINAVKLTFNSYNQPDNGKFSMKAPTYVLLLREKERQSFFEENKLTDNITSYLAVHNAIISNKPTTNQYVFTNLTRLINACVNEKQEAKKKAGDSWNEAAWEAANPDWNKVVLIPVLVQYDSSSNKNMISIQHDLQPGYVKLEGGPDGTKLKLEVTYTNFNGKEGHHHHHH soluble
8) MGSDKIHHHHHHMPHSLHPLFQAIATAPTEQTLRLTVMDNISEYFGVQRWGIYLLDTNNNLASVEAKGVSDTFIEQYQRFGKAVDPVLKYVLENHAPAHEELVLPEGTWKQSELYQRCCSTHDHEHIMTGPLVGQGQLIGTINFARIGHIPAFNHLELASLGAVCTHFSARLAELRKPHSVSGQISNRLTSREIQIANLVAKGLTNAEIGAELWITHNSVKQALKRIFRKLEVSARTEMVAKLRDII not soluble
9) SDLQAAGAQAQGAAEPSRGPPLPSARGAPPSPEAGFATADHSGQERETEKAMDRLARGTQSIPNDSPARGEGTHSEEEGFAMDEEDSDGELNTWELSEGTNCPPKEQPGDLFNEDWDSELKADQGNPYDADDIQESISQELKPWVCCAPQGDMIYDPSWHHPPPLIPYYSKMVFETGQFDDAED soluble
10) MTYLVTGATGGLGGYALNYLKELVPMSDIYALVRSKEKGADLKAAGFNIRVGDYSDAESMKQAFAGIDRVLFVSGAPGNRQVEHENVINAAKKAGVSYIAYTSFAGADKSTSALAEDHFFTEKVIEKSGIAHTFLRNNWYFENEMPMIGGALSAGKFVYAAENGKVGWALKREYAEVAAKAVAGAGFPEILELSGPLMTYEELTKALKEATGKDFDVISSDDKGFVENLVSVGLPQPVAEMFLSFQHDIKNDQLDVTSDDFEKALGKPLTNRVDALRELLKLEHHHHHH soluble
11) MTKIAESKIIVGLDIGTSKIAVVVGEVLPDGVINVLGASNCPSKGIDRGGVIDLDAAVNSIQRAIEQAESVSNCQIMGVTLAISGQHITALNESGVIPLSGTVVRKEDIDAAIHIAHSIKLPDG not soluble

----------
- test.details: soluble on expression in E. coli; label from the status in PepcDB or PDB records
measured.metric: soluble on expression in E. coli

1) MGSDKIHHHHHHMQPMDAEVLRILRKNNKSQDWGKINKKLHPKIVKYVDGKPVYQFFDTLNDNSFEKNGQLISIRTQPVNSFVPYHVHNYVEMMVVLSGRCVIKTQSESITLIQDEIMIIGCKTIHKIKPINDETIVVEIALKRTAFSLRDLTFLTHSRDAQSVSSTVFFLLSNDDSYGAFNVFHTQHDVNVVNKVNNIIREYYRPDNYSNQVIKFKILELFIRLVRLASKGPILQTQKEDHKNNEVDALTLLLYIEKNYKTVTLKSMAKHFKFHPNYLSSILKRKTGYTFIKLVHLQRINVAAEYLSLTDISIESISLAVGYEDPSCFYKIFRNHMGCSPREYRQRQAA not soluble
2) MSLTTMVPTVMNTPTRIEAGRQKFLIFDAPSQENLPAYIEEMRAYEVTDLVRTCERTYDDKTVLASGIRPHELIFPDGEAPPDDVIDEWLTLCNAVSQQRGAIAIHCVAGLGRAPVLVAIALIEKGMDPMDAIMFIRERRKGAINRRQLQFLKGYKRRSNYKEGHHHHHH soluble
3) MGSDKIHHHHHHMKQYLRLRAFKAISFDLDDTLYHNTPYLQLATDKFFAFLNQNYPKTQTLHAQGWLTIKHDLFDLHPELKHDTSAARYAMVHDGLMSLGYKESEASEGAQKSMACFHFYRSDFTLDDKVLNLLKQLAESVTLVGISNGNVDASRIGLSESLAFVQHPGHGVKMKPHGDMFELACQRLNISPAELLHVGDHQMADVSGARRAGCQSVWFNPEKHPLTRRTGSILPHVELDDLNKLLNLV not soluble
4) MSGNPGSSLSALRPTPPERGSFPLDHDGECTKYMQEYLKCMQLVQNENAMNCRLLAKDYLRCRMDHQLMDYDEWSHLGLPEDAPGNNGKTIKDATDNK not soluble
5) MELSLSRVHFPVTTLGPGRRLGIWFQGCSIRCPGCISADTWGPGRRRIALARLLADIQPWLEQAEGITVSGGEPFEQFAALLALLGELRRRSRADILVYSGYPLEHLHAQLEQAAGLIDALISDPYQQHAEQSLALRGSDNQRLSLLTELGRARLGGYQRPLREDDKALDLMFDHDGSVWMAGIPRRDDLLRLQDLLREQGHQLSVSAHRPR not soluble
6) MARKRRAARVKDKWTLKKWFTLIAPEYFGMAELGETPADDASKVVGRTVETTLAELTNDYSNQNTYKKLIFKVYRVAGDNAYTKFWRFELTREYLNSLTRRRTSKIEDIVDVTTADGYKLRVKSVVFTVRRCKTSQKRAIRAIMRQIVVEKASSLNFVQFLQECVLGKVPAEIYKNAKKIYPIRRVEIRKIELLAEPAEAETQPAVAEAVALEHHHHHH soluble
7) MGSDKIHHHHHHMKSYFVTMGFNETFLLRLLNETSAQKEDSLVIVVPSPIVSGTRAAIESLRAQISRLNYPPPRIYEIEITDFNLALSKILDIILTLPEPIISDLTMGMRMINTLILLGIIVSRKRFTVYVRDEGGGSRVISFNDNTIRALMRDYSREEMKLLNVLYETKGTGITELAKMLDKSEKTLINKIAELKKFGILTQKGKDRKVELNELGLNVIKLNKSVIESSKSSEELVKENKGKEVNIPY not soluble
8) MTHNIHDNISQWMKSNEETPIVMSSRIRLARNLENHVHPLMYATENDGFRVINEVQDALPNFELMRLDQMDQQSKMKMVAKHLISPELIKQPAAAVLVNDDESLSVMINEEDHIRIQAMGTDTTLQALYNQASSIDDELDRSLDISYDEQLGYLTTCPTNIGTGMRASVMLHLPGLSIMKRMTRIAQTINRFGYTIRGIYGEGSQVYGHTYQVSNQLTLGKSELEIIETLTEVVNQIIHEEKQIRQKLDTYNQLETQDRVFRSLGILQNCRMITMEEASYRLSEVKLGIDLNYIELQNFKFNELMVAIQSPFLLDEEDDKSVKEKRADILREHIK not soluble
9) MRIALFTDTYIPQVNGVARTMKRLVDHLEKRQVEYALYMPETIEKLDRFESNIHTFASLPFFLYPECRIALPNVFKLRQQLTSFQPDLLHIATPFNVGLSGLQHGKKYGIPMVGSYHTHFDHYLHYYKLQFMSAWLWKYVKWFHQPFERTFVPSVETMRHLQKHGFQRLALWTRGVDCERFHPKQRHRSYAINLLPKDKAVLLYVGRLAPEKDLATLVAIMSLLPRELNEKIQWMIVGDGPSLPEMKKQCPSNVTFTGYLKGEELAAAYASADLFVFPSATETFGNVVLEAFASGTPAIVADRGGVTEIVEHGKSGMICKAGDAHTFIQAIEHLLMNRSKRAEMGYEARQYALTQSWERIFDDLLEQYEQVIFHHKKRHLALEHHHHHH not soluble
10) MRVLILGGTGNAAELAARVATIQGVDAITSLAGRTREPSVPLGDLRVGGFGGVAGLASYLQAMQIDLLIDATHPFASQISFNAADAAKEVGVPRLMLIRPPWEKGSGDRWMEVDNVEAAAASLQNQAHRVFLTVGRQELAAFAHLEEIWFLMRMIDPPVDDALVPPGMVLCDRGPFNLNNERQILIDRKIDTIVSKNSGGDATKPKIIAARELGVKVVMVNRPAIPPGEQVSDVEGALVWLLEKLHN not soluble
11) MAEGPLEAPFWRKGLLVAGLDEAGRGAWAGPIVVGAVVLPPGEYPFRDSKLLSPKARERLAEKVKEVALAFALGVAEAAEVDRLGVLKATLLAAERALLSLPLAPEALVTDYLPLPTPLPLLSPPKADEKSPTVAAASILAKVHRDRIMDELDRLYPGYGFARHKGYGTQEHQEALLALGPSPVHRKRFAPVAQAPLRFPEAP soluble
12) MAESFTTTNRYFDNKHYPRGFSRHGDFTIKEAQLLERHGYAFNELDLGKREPVTEEEKLFVAVCRGEREPVTEAERVWSKYMTRIKRPKRFHTLSGGKPQVEGAEDYTDSDD soluble
13) MSSIPQNIKGNNQPDIQKSFVAVHNQPGLYVGQQARFGGKVINVINGKTDTLLEISVLPLDSYAKPDIEANYQGRLLARQSGFLDPVNYRNHFVTILGTIQGEQPGFINKVPYNFLEVNMQGIQVWHLREVVNTTYNLWDYGYGAFWPEPGWGAPYYTNAVSQVTPELVKLEHHHHHH soluble
